System: xanthine oxidase (Bos taurus, UniProt P80457)
Construct: purchased Sigma Chemical Company, St. Louis, Mo; host or cells: milk (grade III, chromatographically purified)
Sequence (P80457 whole entry): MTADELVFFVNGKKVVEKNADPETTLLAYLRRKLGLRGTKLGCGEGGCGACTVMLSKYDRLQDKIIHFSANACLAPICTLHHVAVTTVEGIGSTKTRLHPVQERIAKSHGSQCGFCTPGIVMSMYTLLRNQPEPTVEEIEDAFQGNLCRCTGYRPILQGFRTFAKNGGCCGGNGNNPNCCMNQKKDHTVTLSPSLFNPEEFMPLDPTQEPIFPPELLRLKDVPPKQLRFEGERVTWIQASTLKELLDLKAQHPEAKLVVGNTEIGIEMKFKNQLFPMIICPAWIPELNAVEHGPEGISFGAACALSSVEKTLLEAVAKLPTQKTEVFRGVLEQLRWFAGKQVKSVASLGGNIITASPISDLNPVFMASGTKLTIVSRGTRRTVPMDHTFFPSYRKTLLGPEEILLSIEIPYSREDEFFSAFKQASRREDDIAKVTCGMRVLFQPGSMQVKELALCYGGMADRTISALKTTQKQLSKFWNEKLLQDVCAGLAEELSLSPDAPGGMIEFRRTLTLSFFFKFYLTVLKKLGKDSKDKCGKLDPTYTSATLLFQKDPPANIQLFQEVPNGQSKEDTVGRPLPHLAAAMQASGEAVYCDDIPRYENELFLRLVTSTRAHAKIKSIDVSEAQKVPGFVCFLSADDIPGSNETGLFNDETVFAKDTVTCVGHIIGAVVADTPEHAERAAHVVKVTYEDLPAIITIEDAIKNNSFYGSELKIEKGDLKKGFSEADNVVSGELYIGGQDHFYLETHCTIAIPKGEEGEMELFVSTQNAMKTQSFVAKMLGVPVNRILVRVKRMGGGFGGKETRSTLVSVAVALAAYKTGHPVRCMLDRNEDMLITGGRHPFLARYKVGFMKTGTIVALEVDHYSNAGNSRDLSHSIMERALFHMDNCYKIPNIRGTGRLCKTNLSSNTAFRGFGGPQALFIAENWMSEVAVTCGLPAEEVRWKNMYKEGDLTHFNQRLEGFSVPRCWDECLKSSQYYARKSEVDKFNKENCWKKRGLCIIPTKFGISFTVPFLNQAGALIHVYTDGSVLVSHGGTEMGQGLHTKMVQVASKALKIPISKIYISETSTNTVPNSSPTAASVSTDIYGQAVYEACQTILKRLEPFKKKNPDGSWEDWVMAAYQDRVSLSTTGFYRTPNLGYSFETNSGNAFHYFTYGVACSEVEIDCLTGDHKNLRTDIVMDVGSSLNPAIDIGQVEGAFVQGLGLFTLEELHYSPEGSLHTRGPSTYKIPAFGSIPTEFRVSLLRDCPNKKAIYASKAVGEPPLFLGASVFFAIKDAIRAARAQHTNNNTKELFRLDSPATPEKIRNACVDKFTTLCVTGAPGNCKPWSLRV
Test Name: in vitro xanthine oxidase assay (rate of uric acid formation from xanthine)
Format: biochemical
Experimental Setup: milk xanthine oxidase 0.01 units, 0.05 micromoles xanthine in 1 ml, pH 7.4, room temperature, 292 nm; read-out: I50 (concentration of drug which inhibits 50% of the oxidation of xanthine to uric acid by the xanthine oxidase preparation) (converted)
Label TRUE when IC50 is strictly below 600 nM; at or above that, label FALSE.

INSERT INTO assay_data (compound_structure_string, category_label) VALUES
  ('O=C(O)c1snc(-c2cccc(Cl)c2)c1I', 'FALSE'),
  ('CNc1c(-c2cccc(C(F)(F)F)c2)nsc1C(=O)O', 'TRUE'),
  ('COc1cccc(-c2cc(C(=O)O)sn2)c1', 'FALSE'),
  ('Cc1ccc(-c2nsc(C(=O)O)c2Cl)cc1', 'TRUE'),
  ('Nc1c(-c2ccc(C(F)(F)F)cc2)nsc1C(=O)O', 'FALSE');
